Target: T1, hTRF2-DBD A484S (Homo sapiens, UniProt Q15554 SEQ:1-63)
T1 chain: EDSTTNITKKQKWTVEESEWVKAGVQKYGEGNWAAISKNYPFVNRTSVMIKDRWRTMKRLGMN
Test: SPR; pH 6.8, 180 mM KCl, 293 K
Conditions: tags: N-terminal Met added; untagged, E. coli BL21(DE3) pET23b; label: biotin (13mer on SA chip)
Would you kindly list Kd for each of these binders?
Give bare numbers, in µM.

Completed entries (count: 2):
>  <BINDER>
T9G (dsDNA) DNA 1: GTTAGGGTGAGGG DNA 2: CCCTCACCCTAAC

>  <QUANTITATIVE RESULT>
69.1

$$$$
>  <BINDER>
T3G (dsDNA) DNA 1: GTGAGGGTTAGGG DNA 2: CCCTAACCCTCAC

>  <QUANTITATIVE RESULT>
4.03

$$$$

Batch: Kd for all items listed.
1. G7C (dsDNA) DNA 1: GTTAGGCTTAGGG DNA 2: CCCTAAGCCTAAC
2. tr13 (dsDNA) DNA 1: GTTAGGGTTAGGG DNA 2: CCCTAACCCTAAC

Reply |
1: 50.7; 2: 0.55
